Test system: Trypanosoma cruzi
Assay: Trypanosoma cruzi phosphomannomutase and mannose-1-phosphate guanylyltransferase assay
Type: functional
Design: scale not given: direction of the effect not stated beside the values
Conditions: 10 µM
Please respond with reported Percent Effect for every item in the list.
One number for each entry, in %.

Example entries begin here.
O=C(c1cscn1)N1CCN2C[C@H](OCc3cccnc3)C[C@H]2C1 ... -9.05
Cc1cccc(CN2CC[C@@H]3[C@@H]2CCN3C(=O)c2cnoc2C)n1 ... 5.27
Cc1oc(-c2ccco2)nc1CC(=O)N1CCN(CC(C)(C)O)CC1 ... -0.294
O=C1CC[C@H]2[C@H](CCN2Cc2ccccn2)N1CC1CCOCC1 ... -5.63
c1cc(CO[C@@H]2CC[C@H]3[C@H]2OCCN3CC2CCOCC2)ccn1 ... -4.79
O=C(N[C@H]1CN[C@H]2CCCO[C@H]21)c1cscn1 ... 0
O=C1CC2(CCN(Cc3ccccn3)C2)CN1c1cncnc1 (stereo unspecified) ... -1.66
CNC(=O)CN1CCOCC2(CCCN(Cc3cccnc3)C2)C1 (stereo unspecified) ... -4.1
c1ccc(OC[C@]23COC[C@H]2CN(Cc2ccoc2)C3)nc1 ... 4.05
CN(C)C(=O)CN1C[C@@H]2CC[C@H](C1)N(C(=O)Cc1ccccc1Cl)C2 ... -5.16

IN: Item O=C1C[C@H]2[C@H](CCN2Cc2ccccn2)N1CC1CC1 has what recorded Percent Effect?
OUT: -5.25
